target: Pgp (LCC6MDR cells) (Homo sapiens, UniProt P08183); assay: Cell proliferation assay: Pgp-modulating activity, reversal of anticancer drug resistance in LCC6MDR cells; conditions: RF = (IC50 without modulator)/(IC50 with 0.5 μM modulator), paclitaxel, LCC6MDR
Sequence (P08183 whole entry): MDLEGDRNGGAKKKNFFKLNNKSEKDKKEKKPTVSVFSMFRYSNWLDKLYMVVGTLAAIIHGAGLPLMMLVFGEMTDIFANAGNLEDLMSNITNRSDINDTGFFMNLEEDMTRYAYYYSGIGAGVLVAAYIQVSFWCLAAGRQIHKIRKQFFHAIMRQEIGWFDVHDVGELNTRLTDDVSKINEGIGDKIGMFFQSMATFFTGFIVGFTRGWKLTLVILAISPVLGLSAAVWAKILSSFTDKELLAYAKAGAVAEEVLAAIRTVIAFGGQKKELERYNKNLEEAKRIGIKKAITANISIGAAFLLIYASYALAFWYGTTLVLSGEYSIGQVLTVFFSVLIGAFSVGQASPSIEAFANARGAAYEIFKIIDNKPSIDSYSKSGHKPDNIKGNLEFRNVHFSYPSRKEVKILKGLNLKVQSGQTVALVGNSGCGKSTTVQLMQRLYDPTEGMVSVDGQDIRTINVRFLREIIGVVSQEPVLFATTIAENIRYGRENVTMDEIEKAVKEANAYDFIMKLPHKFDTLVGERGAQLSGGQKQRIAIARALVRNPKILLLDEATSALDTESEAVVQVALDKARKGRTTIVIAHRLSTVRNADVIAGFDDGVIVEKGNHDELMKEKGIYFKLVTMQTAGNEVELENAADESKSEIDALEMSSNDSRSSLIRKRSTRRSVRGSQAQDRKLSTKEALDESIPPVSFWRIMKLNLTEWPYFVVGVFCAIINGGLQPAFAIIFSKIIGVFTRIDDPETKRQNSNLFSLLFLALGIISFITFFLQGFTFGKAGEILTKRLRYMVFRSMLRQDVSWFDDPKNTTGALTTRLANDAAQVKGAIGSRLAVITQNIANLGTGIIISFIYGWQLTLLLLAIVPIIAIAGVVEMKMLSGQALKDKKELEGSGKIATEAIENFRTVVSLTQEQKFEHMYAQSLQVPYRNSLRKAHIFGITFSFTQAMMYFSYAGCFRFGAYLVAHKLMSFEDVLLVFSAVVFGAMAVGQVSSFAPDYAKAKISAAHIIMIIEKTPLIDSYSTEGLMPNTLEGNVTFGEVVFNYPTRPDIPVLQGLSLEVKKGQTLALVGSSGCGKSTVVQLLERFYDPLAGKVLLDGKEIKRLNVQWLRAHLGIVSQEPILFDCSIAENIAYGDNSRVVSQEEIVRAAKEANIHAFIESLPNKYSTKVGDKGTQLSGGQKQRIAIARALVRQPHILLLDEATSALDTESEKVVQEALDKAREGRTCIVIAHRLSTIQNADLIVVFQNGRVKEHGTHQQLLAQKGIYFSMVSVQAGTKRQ
RECORDED_ENDPOINT: RF (Relative Fold), cpd at 0.5 μM

- MOLECULE: "COc1cccc2oc(-c3ccc(OCCOCCNCCOCCOc4ccc(-c5cc(=O)c6c(OC)cccc6o5)cc4)cc3)cc(=O)c12 [Compound 12d]"
  STUDY_SYSTEM: "Pgp (LCC6MDR cells) (Homo sapiens, UniProt P08183)"
  RECORDED_ENDPOINT: "RF (Relative Fold), cpd at 0.5 μM"
  RESULT: "(1.2)"

---

biological target: Pgp (LCC6MDR cells) (Homo sapiens, UniProt P08183); experiment: Cell proliferation assay: Pgp-modulating activity, reversal of anticancer drug resistance in LCC6MDR cells; conditions: RF = (IC50 without modulator)/(IC50 with 1.0 μM modulator), paclitaxel, LCC6MDR
RECORDED_ENDPOINT: RF (Relative Fold), cpd at 1 μM

- COMPOUND: "O=c1cc(-c2ccc(OCCOCCN(CCOCCOc3ccc(-c4cc(=O)c5ccccc5o4)cc3)Cc3ccc4ccccc4n3)cc2)oc2ccccc12 [Compound 64g]"
  RF (Relative Fold), cpd at 1 μM: "(102.1)"
- COMPOUND: "CC(C)(C)OC(=O)Nc1ccc(CN(CCOCCOc2ccc(-c3cc(=O)c4ccccc4o3)cc2)CCOCCOc2ccc(-c3cc(=O)c4ccccc4o3)cc2)cc1"
  RF (Relative Fold), cpd at 1 μM: "(95.7)"
- COMPOUND: "O=c1cc(-c2ccc(OCCOCCN(CCOCCOc3ccc(-c4cc(=O)c5ccccc5o4)cc3)Cc3ccc(Cl)cc3)cc2)oc2ccccc12"
  RF (Relative Fold), cpd at 1 μM: "(95.7)"
- COMPOUND: "Cc1cccc(CN(CCOCCOc2ccc(-c3cc(=O)c4ccccc4o3)cc2)CCOCCOc2ccc(-c3cc(=O)c4ccccc4o3)cc2)c1"
  RF (Relative Fold), cpd at 1 μM: "(102.1)"
- COMPOUND: "Cc1ccccc1CN(CCOCCOc1ccc(-c2cc(=O)c3ccccc3o2)cc1)CCOCCOc1ccc(-c2cc(=O)c3ccccc3o2)cc1"
  RF (Relative Fold), cpd at 1 μM: "(117.8)"
- COMPOUND: "O=c1cc(-c2ccc(OCCOCCN(CCOCCOc3ccc(-c4cc(=O)c5ccccc5o4)cc3)Cc3nc4ccccc4[nH]3)cc2)oc2ccccc12"
  RF (Relative Fold), cpd at 1 μM: "(117.8)"

Please look up its RF (Relative Fold), cpd at 1 μM: C=Cc1ccc(CN(CCOCCOc2ccc(-c3cc(=O)c4ccccc4o3)cc2)CCOCCOc2ccc(-c3cc(=O)c4ccccc4o3)cc2)cc1 (117.8)

Please look up its RF (Relative Fold), cpd at 1 μM: O=c1cc(-c2ccc(OCCOCCN(CCOCCOc3ccc(-c4cc(=O)c5ccccc5o4)cc3)Cc3ccccc3Cl)cc2)oc2ccccc12 (95.7)

Please look up its RF (Relative Fold), cpd at 1 μM: N#Cc1ccc(CN(CCOCCOc2ccc(-c3cc(=O)c4ccccc4o3)cc2)CCOCCOc2ccc(-c3cc(=O)c4ccccc4o3)cc2)cc1 (5.9)
